System Under Test: T1, human IL-2Rα (human, UniProt P01589 22-240, limits assumed)
T1 construct: recombinant protein; also called hu IL-2R; human IL-2Ra
T1 sequence: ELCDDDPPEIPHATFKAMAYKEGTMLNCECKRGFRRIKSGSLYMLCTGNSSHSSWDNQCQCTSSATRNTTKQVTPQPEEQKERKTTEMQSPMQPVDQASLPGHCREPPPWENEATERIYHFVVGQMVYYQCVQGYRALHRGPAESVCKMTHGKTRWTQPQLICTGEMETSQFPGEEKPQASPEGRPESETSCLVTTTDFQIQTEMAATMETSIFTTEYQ
Test: SPR, P.E. on immobilised antigen
Recorded koff, one value per entry.
Metric: koff (s⁻¹)

>>> value_measured("FJ1427_P035MP05B05 (VHH, periplasmic extract; also called clone nr) VHH: EVQLVESGGGLVQAGGSLRLSCAASGFTFDGYAVGWFRQAPGKEPEGVSYITGSDGVTYYIDSVKGRFTISSDNAKRTVYLQMNTLKPEDTAVYYCAVDRLGSQGRYASSWWRAGDMDFWGKGTLVTVSS")
0.00103
>>> value_measured("FJ1427_P035MP05A07 (VHH, periplasmic extract; also called clone nr) VHH: QVQLVESGGGLAQAGASLRLSCAASGRTLYSSYGMAWFRQAPGKERDFVGSISRYGTYTSYADSVKGRFTISRDNAKSTVYLQMNNTKPEDTAVYYCAAYTYSGSFYSTVKTHRDEYQYWGQGTQVTVSS")
0.00104
>>> value_measured("FJ1427_P035MP05B03 (VHH, periplasmic extract; also called clone nr) VHH: QVQLQESGGGLVQPGGSLRLSCAASGITFNDHTMAWFRQAPGKEREFVAARDWSDIITRYASSVKGRFTISRDNAGNTGFLQMNSLRPEDTAVYYCAAREGGVVAGVRSGAPYDYWGQGTQVTVSS")
0.000131
>>> value_measured("FJ1427_P035MP05H02 (VHH, periplasmic extract; also called clone nr; 400) VHH: EVQLVESGGGLVQAGGSLRLSCAASGITFNDHTMAWFRQAPGKEREFVAARDWSDIITRYAGSVKGRFTISRDNAGNTGFLQMNSLRPEDTAVYYCAAREGGVVAGVRSGAPYDYWGQGTQVTVSS")
0.000141
